- Test system: HL-60(TB)
- assayMethodText: SRB 48 h growth assay, Leukemia HL-60(TB)
- Format: cell-based, human
- testParameters: Homo sapiens, read-out: Log10 GI50 (converted)
# GI50 annotations

| molecule | GI50 / nM |
| --- | --- |
| C#Cc1ccc(-n2c(/C=C/c3ccc(C(F)(F)F)cc3)nc3ncccc3c2=O)cc1 [4c] | 2090 |
| C#Cc1ccc(-n2c(/C=C/c3ccc(O)cc3)nc3ncccc3c2=O)cc1 [4b] | 3240 |
| C#Cc1ccc(-n2c(/C=C/c3ccc4ccccc4n3)nc3ncccc3c2=O)cc1 [4t] | 295 |
| C#Cc1ccc(-n2c(/C=C/c3ccc4ccccc4c3)nc3ncccc3c2=O)cc1 [4s] | 1660 |
| C#Cc1ccc(-n2c(/C=C/c3cc(OC)c(OC)c(OC)c3)nc3ncccc3c2=O)cc1 [4q] | 3800 |

---

- System: NCI-H522
- assayMethodText: SRB 48 h growth assay, Non-small Cell Lung NCI-H522
- Format: cell-based, human
# Log10 TGI50 annotations

| chemicalStructure | Log10 TGI50 |
| --- | --- |
| C#Cc1ccc(-n2c(/C=C/c3ccc(C(F)(F)F)cc3)nc3ncccc3c2=O)cc1 | −5.51 |
| C#Cc1ccc(-n2c(/C=C/c3cc(OC)c(OC)c(OC)c3)nc3ncccc3c2=O)cc1 | −5.20 |
| C#Cc1ccc(-n2c(/C=C/c3ccc4ccccc4c3)nc3ncccc3c2=O)cc1 | >−4.00 |
| C#Cc1ccc(-n2c(/C=C/c3ccc4ccccc4n3)nc3ncccc3c2=O)cc1 | −6.10 |
| C#Cc1ccc(-n2c(/C=C/c3ccc(O)cc3)nc3ncccc3c2=O)cc1 | −5.22 |

---

- Tested on: HOP-62
- assayMethodText: SRB 48 h growth assay, Non-small Cell Lung HOP-62
- Assay type: cell-based, human
- testParameters: Homo sapiens, HOP-62, Non-small Cell Lung, read-out: Log10 GI50 (converted)
Please respond with TRUE when measured GI50 is strictly beneath 2 µM, and with FALSE in all other cases.

| compound | discreteLabel |
| --- | --- |
| C#Cc1ccc(-n2c(/C=C/c3ccc4ccccc4n3)nc3ncccc3c2=O)cc1 [4t] | TRUE |
| C#Cc1ccc(-n2c(/C=C/c3ccc(Cl)c(F)c3)nc3ncccc3c2=O)cc1 [4g] | TRUE |
| C#Cc1ccc(-n2c(/C=C/c3ccc4ccccc4c3)nc3ncccc3c2=O)cc1 [4s] | FALSE |
| C#Cc1ccc(-n2c(/C=C/c3ccc(O)cc3)nc3ncccc3c2=O)cc1 [4b] | FALSE |
| C#Cc1ccc(-n2c(/C=C/c3ccc(C(F)(F)F)cc3)nc3ncccc3c2=O)cc1 [4c] | FALSE |
| C#Cc1ccc(-n2c(/C=C/c3cc(OC)c(OC)c(OC)c3)nc3ncccc3c2=O)cc1 [4q] | FALSE |

---

- System: NCI-H23
- assayMethodText: SRB 48 h growth assay, Non-small Cell Lung NCI-H23
- Format: cell-based, human
- testParameters: Homo sapiens, read-out: Log10 GI50 (converted)
# log10 GI50 annotations
observable: log10 GI50 (log10 of the value in µM)

| chemicalStructure | resultValue |
| --- | --- |
| C#Cc1ccc(-n2c(/C=C/c3ccc(O)cc3)nc3ncccc3c2=O)cc1 | 0.74 |
| C#Cc1ccc(-n2c(/C=C/c3ccc4ccccc4c3)nc3ncccc3c2=O)cc1 | 0.81 |
| C#Cc1ccc(-n2c(/C=C/c3ccc(C(F)(F)F)cc3)nc3ncccc3c2=O)cc1 | 0.59 |
| C#Cc1ccc(-n2c(/C=C/c3ccc4ccccc4n3)nc3ncccc3c2=O)cc1 | -0.15 |
| C#Cc1ccc(-n2c(/C=C/c3cc(OC)c(OC)c(OC)c3)nc3ncccc3c2=O)cc1 | 1.24 |

---

- System: SNB-19
- assayMethodText: SRB 48 h growth assay, CNS SNB-19
- Type: cell-based, human
- testParameters: SNB-19, CNS
observable: Log10 TGI50

| compound | resultValue |
| --- | --- |
| C#Cc1ccc(-n2c(/C=C/c3ccc(O)cc3)nc3ncccc3c2=O)cc1 [4b] | >−4.00 |
| C#Cc1ccc(-n2c(/C=C/c3cc(OC)c(OC)c(OC)c3)nc3ncccc3c2=O)cc1 [4q] | >−4.00 |
| C#Cc1ccc(-n2c(/C=C/c3ccc4ccccc4c3)nc3ncccc3c2=O)cc1 [4s] | >−4.00 |
| C#Cc1ccc(-n2c(/C=C/c3ccc(C(F)(F)F)cc3)nc3ncccc3c2=O)cc1 [4c] | −5.37 |

---

- Tested on: UACC-257
- assayMethodText: SRB 48 h growth assay, Melanoma UACC-257
- Format: cell-based, human
- testParameters: UACC-257, Melanoma
# Log10 TGI50 annotations

| chemicalStructure | ltGtEq | Log10 TGI50 |
| --- | --- | --- |
| C#Cc1ccc(-n2c(/C=C/c3ccc4ccccc4n3)nc3ncccc3c2=O)cc1 | = | −5.66 |
| C#Cc1ccc(-n2c(/C=C/c3cc(OC)c(OC)c(OC)c3)nc3ncccc3c2=O)cc1 | > | −4.00 |
| C#Cc1ccc(-n2c(/C=C/c3ccc(C(F)(F)F)cc3)nc3ncccc3c2=O)cc1 | = | −5.53 |
| C#Cc1ccc(-n2c(/C=C/c3ccc(O)cc3)nc3ncccc3c2=O)cc1 | > | −4.00 |

---

| chemicalStructure | melting point |
| --- | --- |
| C#Cc1ccc(-n2c(/C=C/c3ccc(F)cc3)nc3ncccc3c2=O)cc1 | 123 to 124 °C |
| C#Cc1ccc(-n2c(/C=C/c3ccc(O)c(OC)c3)nc3ncccc3c2=O)cc1 | 123 to 124 °C |
| C#Cc1ccc(-n2c(/C=C/c3ccc(F)c(F)c3)nc3ncccc3c2=O)cc1 | 123 to 124 °C |
| C#Cc1ccc(-n2c(/C=C/c3c(OC)cc(OC)cc3OC)nc3ncccc3c2=O)cc1 | 124 to 125 °C |
| C#Cc1ccc(-n2c(/C=C/c3cc(OC)cc(OC)c3)nc3ncccc3c2=O)cc1 | 123 to 124 °C |
| C#Cc1ccc(-n2c(/C=C/c3ccc4[nH]ccc4c3)nc3ncccc3c2=O)cc1 | 123 to 124 °C |
| C#Cc1ccc(-n2c(/C=C/c3cc(OC)ccc3OC)nc3ncccc3c2=O)cc1 | 127 to 128 °C |
| C#Cc1ccc(-n2c(/C=C/c3cccc4c3OCO4)nc3ncccc3c2=O)cc1 | 125 to 126 °C |
| C#Cc1ccc(-n2c(/C=C/c3cccc(OC(F)(F)F)c3)nc3ncccc3c2=O)cc1 | 128 to 129 °C |
| C#Cc1ccc(-n2c(/C=C/c3ccc(OC)c(F)c3)nc3ncccc3c2=O)cc1 | 124 to 125 °C |
| C#Cc1ccc(-n2c(/C=C/c3c[nH]c4ccc(OC)cc34)nc3ncccc3c2=O)cc1 | 114 to 115 °C |

---

# GI50 annotations
- Test system: SK-MEL-28
- assayMethodText: SRB 48 h growth assay, Melanoma SK-MEL-28
- Assay type: cell-based, human
- testParameters: Homo sapiens, SK-MEL-28, Melanoma, read-out: Log10 GI50 (converted)

| chemicalStructure | GI50 (µM) |
| --- | --- |
| C#Cc1ccc(-n2c(/C=C/c3ccc(O)cc3)nc3ncccc3c2=O)cc1 | 6.03 |
| C#Cc1ccc(-n2c(/C=C/c3ccc(C(F)(F)F)cc3)nc3ncccc3c2=O)cc1 | 1.78 |
| C#Cc1ccc(-n2c(/C=C/c3cc(OC)c(OC)c(OC)c3)nc3ncccc3c2=O)cc1 | 34.7 |
| C#Cc1ccc(-n2c(/C=C/c3ccc4ccccc4n3)nc3ncccc3c2=O)cc1 | 1.05 |
| C#Cc1ccc(-n2c(/C=C/c3ccc4ccccc4c3)nc3ncccc3c2=O)cc1 | 4.37 |

---

- Test system: KM12
- assayMethodText: SRB 48 h growth assay, Colon KM12
- Format: cell-based, human
# Log10 TGI50 annotations
observable: Log10 TGI50

| compound | resultValue |
| --- | --- |
| C#Cc1ccc(-n2c(/C=C/c3ccc(C(F)(F)F)cc3)nc3ncccc3c2=O)cc1 [4c] | −5.46 |
| C#Cc1ccc(-n2c(/C=C/c3cc(OC)c(OC)c(OC)c3)nc3ncccc3c2=O)cc1 [4q] | −4.89 |
| C#Cc1ccc(-n2c(/C=C/c3ccc(O)cc3)nc3ncccc3c2=O)cc1 [4b] | −4.22 |
| C#Cc1ccc(-n2c(/C=C/c3ccc4ccccc4n3)nc3ncccc3c2=O)cc1 [4t] | −5.97 |
| C#Cc1ccc(-n2c(/C=C/c3ccc4ccccc4c3)nc3ncccc3c2=O)cc1 [4s] | >−4.00 |

---

# GI50 annotations
- Test system: SW-620
- assayMethodText: SRB 48 h growth assay, Colon SW-620
- Format: cell-based, human
- testParameters: Homo sapiens, SW-620, Colon, read-out: Growth Inhibition GI50
observable: GI50 (nM)

| molecule | resultValue |
| --- | --- |
| C#Cc1ccc(-n2c(/C=C/c3ccc4ccccc4n3)nc3ncccc3c2=O)cc1 [4t] | 350 |
| C#Cc1ccc(-n2c(/C=C/c3ccc(O)cc3)nc3ncccc3c2=O)cc1 [4b] | 3550 |
| C#Cc1ccc(-n2c(/C=C/c3ccc(C(F)(F)F)cc3)nc3ncccc3c2=O)cc1 [4c] | 1920 |
| C#Cc1ccc(-n2c(/C=C/c3ccc(Cl)c(F)c3)nc3ncccc3c2=O)cc1 [4g] | 370 |
| C#Cc1ccc(-n2c(/C=C/c3ccc4ccccc4c3)nc3ncccc3c2=O)cc1 [4s] | 2220 |
| C#Cc1ccc(-n2c(/C=C/c3cc(OC)c(OC)c(OC)c3)nc3ncccc3c2=O)cc1 [4q] | 3290 |
